# measurement target: recombinant guanylate cyclase reporter cell line (Rattus norvegicus, UniProt P20595)
# measurement description: Effect on a recombinant guanylate cyclase reporter cell line
# condition label: half maximal effective concentration; in some cases mean values from individual determinations
pEC50: −log10 of the molar value. Counter-ions that a name gives are not always drawn.
endpoint name: pEC50

Illustrative cases are given below, each with its answer.
INSERT INTO measurements (compound, endpoint_name, numeric_readout) VALUES
  ('O=C(O)c1cnn(C2CCCN(c3cc(Cl)ccc3-c3ccc(N4CCN(CC5CC5C(F)(F)F)CC4)cc3)C2)c1C(F)(F)F (single isomer, unassigned) [Example 33, hydrochloride]', 'pEC50', 7.43),
  ('CCN1CCN(c2ccc(-c3ccc(Cl)cc3N3CCCC(n4ncc(C(=O)O)c4C(F)(F)F)C3)cc2)CC1 (single isomer, unassigned) [Example 3, hydrochloride]', 'pEC50', 7.18);

a = CC(C)(F)C(=O)N1CCN(c2ccc(-c3ccc(Cl)cc3N3CCCC(n4ncc(C(=O)O)c4C(F)(F)F)C3)cc2)CC1 (single isomer, unassigned) [Example 39]
b = O=C(O)c1cnn(C2CCCN(c3cc(Cl)ccc3-c3ccc(N4CCN(CC5CC5(F)F)CC4)cc3)C2)c1C(F)(F)F (mixture of isomers) [Example 31, hydrochloride]
q: Endpoint returns the identifier whose pEC50 is numerically larger, either a or b . Write down the label attached to your selection.
a: b

---

# measurement target: recombinant guanylate cyclase reporter cell line (Rattus norvegicus, UniProt P20595)
# Construct: expressed in transfected cells
# Sequence (P20595 1-619): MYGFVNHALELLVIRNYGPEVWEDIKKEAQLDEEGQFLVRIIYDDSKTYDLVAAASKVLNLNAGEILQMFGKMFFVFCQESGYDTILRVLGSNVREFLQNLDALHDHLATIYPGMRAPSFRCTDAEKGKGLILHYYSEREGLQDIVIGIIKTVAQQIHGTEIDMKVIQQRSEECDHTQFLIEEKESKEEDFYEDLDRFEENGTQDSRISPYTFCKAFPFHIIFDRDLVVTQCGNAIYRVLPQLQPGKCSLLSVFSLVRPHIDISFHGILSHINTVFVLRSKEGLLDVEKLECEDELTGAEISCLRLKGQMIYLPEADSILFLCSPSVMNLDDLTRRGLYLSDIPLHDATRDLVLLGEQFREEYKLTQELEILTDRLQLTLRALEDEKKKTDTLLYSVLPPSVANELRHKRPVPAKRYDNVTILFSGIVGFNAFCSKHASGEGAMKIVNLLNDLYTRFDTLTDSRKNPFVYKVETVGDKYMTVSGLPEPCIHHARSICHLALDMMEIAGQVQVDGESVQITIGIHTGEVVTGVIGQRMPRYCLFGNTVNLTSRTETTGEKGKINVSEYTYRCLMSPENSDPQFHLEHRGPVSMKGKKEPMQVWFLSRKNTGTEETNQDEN
# Sequence (P19686 1-690 partner): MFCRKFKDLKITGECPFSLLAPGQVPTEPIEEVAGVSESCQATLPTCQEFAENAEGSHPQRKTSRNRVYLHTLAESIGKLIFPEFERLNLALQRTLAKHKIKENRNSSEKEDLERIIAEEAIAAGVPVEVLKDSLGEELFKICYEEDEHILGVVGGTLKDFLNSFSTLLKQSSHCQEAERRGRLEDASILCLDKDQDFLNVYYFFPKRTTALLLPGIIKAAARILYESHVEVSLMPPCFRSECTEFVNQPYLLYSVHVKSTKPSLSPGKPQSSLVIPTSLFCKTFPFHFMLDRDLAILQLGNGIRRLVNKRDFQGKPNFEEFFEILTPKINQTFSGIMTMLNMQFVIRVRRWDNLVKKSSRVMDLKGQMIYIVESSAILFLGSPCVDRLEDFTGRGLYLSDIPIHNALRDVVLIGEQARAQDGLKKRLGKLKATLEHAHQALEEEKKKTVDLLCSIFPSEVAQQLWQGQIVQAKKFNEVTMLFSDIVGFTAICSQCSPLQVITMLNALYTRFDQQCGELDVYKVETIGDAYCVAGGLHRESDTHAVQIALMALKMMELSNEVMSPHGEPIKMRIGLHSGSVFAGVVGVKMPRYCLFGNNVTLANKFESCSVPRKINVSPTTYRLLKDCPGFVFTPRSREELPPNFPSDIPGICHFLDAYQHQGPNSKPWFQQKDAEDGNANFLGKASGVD
# measurement description: Effect on a recombinant guanylate cyclase reporter cell line
# Assay type: cell-based
# condition label: MEC = minimum effective concentration; in some cases mean values from individual determinations
Structures can show the parent of a compound that is named as a salt.
endpoint name: MEC (nM)

Illustrative cases are given below, each with its answer.
INSERT INTO results (molecule, unit_abbreviation, numeric_readout) VALUES
  ('O=C(O)c1cnn(C2CCCN(c3cc(Cl)ccc3-c3ccc(N4CCN(C(=O)[C@H]5C[C@H]5F)CC4)cc3)C2)c1C(F)(F)F (single isomer, unassigned) [Example 45, hydrochloride]', 'nM', 3.0),
  ('O=C(O)c1cnn(C2CCCN(c3cc(Cl)ccc3-c3ccc(N4CCN(CC(F)(F)F)CC4)cc3)C2)c1C(F)(F)F (single isomer, unassigned) [Example 16]', 'nM', 3.0),
  ('COCCOC(=O)N1CCN(c2ccc(-c3ccc(Cl)cc3N3CCCC(n4ncc(C(=O)O)c4C(F)(F)F)C3)cc2)CC1 (single isomer, unassigned)', 'nM', 10.0),
  ('O=C(O)c1cnn(C2CCCN(c3cc(Cl)ccc3-c3ccc(N4CCN(C(=O)C5CC5(F)F)CC4)cc3)C2)c1C(F)(F)F (single isomer, unassigned)', 'nM', 3.0),
  ('O=C(O)c1cnn(C2CCCN(c3cc(Cl)ccc3-c3ccc(N4CCN(CC5(F)CCC5)CC4)cc3)C2)c1C(F)(F)F (single isomer, unassigned) [Example 23, hydrochloride]', 'nM', 3.0),
  ('O=C(O)c1cnn(C2CCCN(c3cc(Cl)ccc3-c3ccc(N4CCN(CC5CCC5)CC4)cc3)C2)c1C(F)(F)F (single isomer, unassigned) [Example 19, hydrochloride]', 'nM', 3.0);

a = O=C(O)c1cnn(C2CCCN(c3cc(Cl)ccc3-c3ccc(N4CCN(CC5CC5)CC4)cc3)C2)c1C(F)(F)F (single isomer, unassigned) [Example 7, hydrochloride]
b = CC(=O)N1CCN(c2ccc(-c3ccc(Cl)cc3N3CCCC(n4ncc(C(=O)O)c4C(F)(F)F)C3)cc2)CC1 (single isomer, unassigned)
c = CC(C)CN1CCc2cc(-c3ccc(Cl)cc3N3CCCC(n4ncc(C(=O)O)c4C(F)(F)F)C3)ccc2C1 (single isomer, unassigned) [Example 81, hydrochloride]
q: Arrange these 3 molecules in increasing order of MEC. # format: label list in the order the request specifies
a: a, b, c

a = CCCOC(=O)N1CCN(c2ccc(-c3ccc(Cl)cc3N3CCCC(n4ncc(C(=O)O)c4C(F)(F)F)C3)cc2)CC1 (single isomer, unassigned)
b = CC(C)(F)CN1CCN(c2ccc(-c3ccc(Cl)cc3N3CCCC(n4ncc(C(=O)O)c4C(F)(F)F)C3)cc2)CC1.Cl (single isomer, unassigned)
q: Endpoint returns the identifier whose MEC is numerically larger, either a or b . Write down the label attached to your selection.
a: a

I = CC(C)COC(=O)N1CCN(c2ccc(-c3ccc(Cl)cc3N3CCCC(n4ncc(C(=O)O)c4C(F)(F)F)C3)cc2)CC1 (single isomer, unassigned)
II = N#CCCN1CCN(c2ccc(-c3ccc(Cl)cc3N3CCCC(n4ncc(C(=O)O)c4C(F)(F)F)C3)cc2)CC1 (single isomer, unassigned)
q: Endpoint returns the identifier whose MEC is numerically larger, either I or II . Write down the label attached to your selection.
a: I
(I: 10.0 nM, II: 1.0 nM)

1 = CS(=O)(=O)N1CCN(c2ccc(-c3ccc(Cl)cc3N3CCCC(n4ncc(C(=O)O)c4C(F)(F)F)C3)cc2)CC1 (single isomer, unassigned) [Example 67, hydrochloride]
2 = CCNC(=O)N1CCN(c2ccc(-c3ccc(Cl)cc3N3CCCC(n4ncc(C(=O)O)c4C(F)(F)F)C3)cc2)CC1 (single isomer, unassigned)
q: I would appreciate it if you could say which entry, 1 or 2 , has the lower MEC value. Write down the label attached to your selection.
a: 2

---

# measurement target: recombinant guanylate cyclase reporter cell line (Rattus norvegicus)
# measurement description: Effect on a recombinant guanylate cyclase reporter cell line
# condition label: half maximal effective concentration; in some cases mean values from individual determinations
# Procedure: The cellular activity of the compounds according to the invention was determined using a recombinant guanylate cyclase reporter cell line, as described in F. Wunder et al., Anal. Biochem. 339, 104-112 (2005).
pEC50: −log10 of the molar value. Structures can show the parent of a compound that is named as a salt.
endpoint name: pEC50

INSERT INTO results (compound, numeric_readout) VALUES
  ('O=C(O)c1cnn(C2CCCN(c3cc(Cl)ccc3-c3ccc(N4CCN(CC(F)(F)F)CC4)nc3)C2)c1C(F)(F)F (single isomer, unassigned) [Example 75]', 7.80),
  ('CC(F)(F)CN1CCN(c2ccc(-c3ccc(Cl)cc3N3CCCC(n4ncc(C(=O)O)c4C(F)(F)F)C3)cc2)CC1 (single isomer, unassigned) [Example 11, hydrochloride]', 8.85),
  ('O=C(O)c1cnn(C2CCCN(c3cc(Cl)ccc3-c3ccc(N4CCN(C(=O)OC5CC5)CC4)cc3)C2)c1C(F)(F)F (single isomer, unassigned)', 8.20),
  ('O=C(O)c1cnn(C2CCCN(c3cc(Cl)ccc3-c3ccc(N4CCN(CC5(C(F)(F)F)CC5)CC4)cc3)C2)c1C(F)(F)F (single isomer, unassigned) [Example 34, hydrochloride]', 7.39),
  ('O=C(O)c1cnn(C2CCCN(c3cc(Cl)ccc3-c3ccc(N4CCN(CC(F)F)CC4)cc3)C2)c1C(F)(F)F (single isomer, unassigned) [Example 12, hydrochloride]', 8.34);

a = O=C(O)c1cnn(C2CCCN(c3cc(Cl)ccc3-c3ccc(N4CCN(C(=O)[C@H]5CC5(F)F)CC4)cc3)C2)c1C(F)(F)F (single isomer, unassigned)
b = O=C(O)c1cnn(C2CCCN(c3cc(Cl)ccc3-c3ccc(N4CCN(CC(F)F)CC4)cc3)C2)c1C(F)(F)F (single isomer, unassigned) [Example 13]
q: I would appreciate it if you could say which entry, a or b , has the lower pEC50 value. Write down the label attached to your selection.
a: b

A = CCC(=O)N1CCN(c2ccc(-c3ccc(Cl)cc3N3CCCC(n4ncc(C(=O)O)c4C(F)(F)F)C3)cc2)CC1 (single isomer, unassigned)
B = CS(=O)(=O)N1CCN(c2ccc(-c3ccc(Cl)cc3N3CCCC(n4ncc(C(=O)O)c4C(F)(F)F)C3)cc2)CC1 (single isomer, unassigned) [Example 67, hydrochloride]
q: Endpoint returns the identifier whose pEC50 is numerically larger, either A or B . Write down the label attached to your selection.
a: A

1 = O=C(O)c1cnn(C2CCCN(c3cc(Cl)ccc3-c3ccc(N4CCN(C(=O)C56CC(F)(C5)C6)CC4)cc3)C2)c1C(F)(F)F (single isomer, unassigned)
2 = O=C(O)c1cnn(C2CCCN(c3cc(Cl)ccc3-c3ccc(N4CCN(CC5CC5F)CC4)cc3)C2)c1C(F)(F)F (single isomer, unassigned) [Example 26, hydrochloride]
q: Endpoint returns the identifier whose pEC50 is numerically larger, either 1 or 2 . Write down the label attached to your selection.
a: 2

I = O=C(O)c1cnn(C2CCCN(c3cc(Cl)ccc3-c3ccc(N4CCN(CC5CC5)CC4)cc3F)C2)c1C(F)(F)F (single isomer, unassigned) [Example 69, hydrochloride]
II = CN1CCN(c2ccc(-c3ccc(Cl)cc3N3CCCC(n4ncc(C(=O)O)c4C(F)(F)F)C3)c(Cl)c2)CC1 (single isomer, unassigned)
q: I would appreciate it if you could say which entry, I or II , has the lower pEC50 value. Write down the label attached to your selection.
a: II
(II: 7.19, I: 7.86)
